# Measured on: PDZØ9, engineered variant (L391F/K392M) of pWT SAP97 PDZ2 (human) (UniProt Q12959)
# Sequence (Q12959 311-407, change not shown): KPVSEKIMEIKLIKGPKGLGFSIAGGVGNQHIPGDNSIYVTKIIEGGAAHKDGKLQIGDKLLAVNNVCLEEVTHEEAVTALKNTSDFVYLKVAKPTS
# Measurement description: stopped-flow spectroscopy
Ends that are not written are not given here.
Quantity name: kon (M⁻¹ s⁻¹)
Give bare numbers, in M⁻¹ s⁻¹.

Ac-PGKETQL [PGKETQL peptide (C-terminus of SO1C1_HUMAN)]    1.6e+07
Ac-RSISTDV [RSISTDV peptide (C-terminus of protein FAM163B)]    1.7e+07
Ac-KRKETLV [KRKETLV peptide (C-terminus of neuroepithelial cell-transforming gene 1 protein, Net1)]    8e+06

Provide kon for all items below, preserving their order.
1. Ac-YRRESAI [YRRESAI peptide (C-terminus of inward rectifier potassium channel 4, Kir2.3)]
2. Ac-VSKETPL [VSKETPL peptide (C-terminus of mitogen-activated protein kinase 12, p38γ)]
3. SARSTDV [SARSTDV peptide (C-terminus of anoctamin-9)]
4. Ac-EKKHTLL [EKKHTLL peptide (C-terminus of E9PN86_HUMAN, partial transcript of EIF3M_HUMAN)]

Result:
1: 2.2e+07; 2: 8.4e+06; 3: 1.3e+07; 4: 1.4e+07

Provide kon for all items below, preserving their order.
1. Ac-TSRETDL [TSRETDL peptide (C-terminus of potassium voltage-gated channel subfamily A member 5, Kv1.5)]
2. Ac-NSKETVV [NSKETVV peptide (C-terminus of E3 ubiquitin-protein ligase MARCH3)]

Result:
1.5e+07
1e+07
